# Protocol text: yeast display, Sf9 membrane polyspecificity reagent, FACS + sequencing; frameworks hold sequencing errors

Record sequence: QVQLVESGGGLVQAGGSLRLSCAASGSTFYIYAMGWYRQAPGKERELVADITWSGGSTYYADSVKGRFTISRDNAKNTVYLQMNSLKPEDTAVYYCATDSWFGLEYWGQCTQVTVSS
polyreactivity (PSR sort gate): high polyreactivity
--
Record sequence: QVQIVESGGGLVQARGSIRFRCAASGRIIGTNTMGWYRQAPGKERELVAAITWSGGSTYYADSVKGRFTISRDKEKTTVYLQMYSLKPEDTAVYYCNVESEYAYHWPVDYWGQGTQVSVSS
polyreactivity (PSR sort gate): low polyreactivity
--
Record sequence: QVQLVESGGGLVQAGGSLRLSCAASGSIFYPNAMGWYRQAPGKERELVAAISSSGGTNYADSVKGRFTISRDNAKNTVYLQMNSLKPEDTAVYYCNARDKVRYRYSRMDYWGQGTQVTVSS
polyreactivity (PSR sort gate): low polyreactivity
--
Record sequence: QVQLVESGGGLVQAGGRLRLSCAASGSTFGFNAMGWSREAPGKERELVAASNDSGGDTYYADSVKGRFTSSRDNAKNTVYLQMNSLKPEDTAVYYCAADEPSSVYGILVELEYWGQGTQVTVST
polyreactivity (PSR sort gate): high polyreactivity

* * *

# Protocol text: yeast display, Sf9 membrane polyspecificity reagent, FACS + sequencing; frameworks hold sequencing errors
Value type: polyreactivity (PSR sort gate)

The cases that follow already have their polyreactivity (PSR sort gate) on record.
Record sequence: QVQHVESVGGLVQAGGSLRLSCAASGSTFGYYAMGWYRQAPGKERELVATISATGGSTYYADSVKGRFTISRDNAKNTVYLQMNSLKPEDTAVYYCNAEYDRGNEYDYWGQGTQVTVSS
polyreactivity (PSR sort gate): low polyreactivity
--
Record sequence: QVQLVESGGGLVQAGGSLRLSCAASGSTLRAYAMGWYRQAPGKERELVAAITRRGGSTSYADSVKGRFTISRDNAKNTVYLQMNSLKPEDTAVYYCARVVVTRHPKSIEYDYWGQGTQVTVSS
polyreactivity (PSR sort gate): high polyreactivity
--
Record sequence: QVQLVESGGGLVQAGGSLRLSCAASGRIFSRYAMGWYRQAPGKERELVAAITRGGSTYADSVKGRFTISRDNAKNTVYLQMNSLKPEDTAVYYCATPIYSSYYRYSSGYGYDYWGQGTQVTVSS
polyreactivity (PSR sort gate): high polyreactivity
--
Record sequence: QVQLVESGGGLVQAGGSLRVSCAASGFIIIGYVMGWYRQSPGKERELVAAITSSGGSTYYADSVKGRFTISRDNAKNTVYLQMNSLKPEDTAVYYWNADIYISPLVQVSKGYDYWGQGTQVTVSS
polyreactivity (PSR sort gate): low polyreactivity

Input: Give the reported value of polyreactivity (PSR sort gate) for this record: `QVQLVESGGGLVQAGGSLRLSCAASGRIFRRYAMGWYRQAPGKEREFVAAISYGGGSTYYADSVKGRFTISRDNAKYTVSLQMNSLTPEDTAVYYCNADVPKSLLLYYPWGYGYWGQGTQVTVSS`
Output: low polyreactivity

Input: Give the reported value of polyreactivity (PSR sort gate) for this record: `QVQLVESGGGLVQARGSLSLSCAATGSTSYINAMGWSSQAPWKERELVAAIRSGGSTKYADSVKGRFTISRDNAKNTVYLQMNSVLPEDSSVYYCAARNVYKTSGFRWVWNYDYWGQGTQVTVSS`
Output: high polyreactivity

Input: Give the reported value of polyreactivity (PSR sort gate) for this record: `QVQLVESGGGLVQAVGSLRLSCAASGRTFYGYALGWYRQQPGKVSELVAAISADTGRTRYADSVKGRFTISRDNAKNTVYLQMICLNPEDTAVYYCATRLFPQSRYYYWGQGTQVTVSS`
Output: high polyreactivity
